# Tested on: weeds ABUTH, AMATA, AMBEL, CHEAL, ERICA
# assay-protocol: Postemergence herbicide evaluation, overall average % weed control across ABUTH, AMATA, AMBEL, CHEAL and ERICA
# Assay type: in vivo
# experimental-parameters: post-emergence, 336 h, 280 g ae/ha, 14 DAA, average over five weeds; read-out: Overall Ave % Weed Control
reported-property: pest or weed control at 280 g/ha (%)
State just the number; it will be interpreted in %.

Use the examples below as a reference point.
COc1ccc(CONC(=O)COc2ccc(Cl)cc2Cl)cc1: 88.9
C=CCONC(=O)COc1ccc(Cl)cc1Cl: 96.9
O=C(COc1ccc(Cl)cc1Cl)ONC(=O)C1CCCC1: 93.1

[ask] Report pest or weed control at 280 g/ha for "Cc1nc2ccccc2n1C(=O)COc1ccc(Cl)cc1Cl"
[reply] 83.9

[ask] Tell me measured pest or weed control at 280 g/ha for "O=C(COc1ccc(Cl)cc1Cl)Nc1cccnc1" please.
[reply] 87.3

[ask] Give pest or weed control at 280 g/ha for "O=C(COc1ccc(Cl)cc1Cl)Oc1ccccn1"
[reply] 88

[ask] Provide measured pest or weed control at 280 g/ha value, entry: "O=C(COc1ccc(Cl)cc1Cl)NOCCc1ccccc1"
[reply] 89.8

Each recorded value in this set is attributed to patent US20260042731A1.
